# MEASUREMENT_TARGET: human MCH-2R (human, UniProt Q969V1 1-340)
# Sequence (Q969V1 whole entry): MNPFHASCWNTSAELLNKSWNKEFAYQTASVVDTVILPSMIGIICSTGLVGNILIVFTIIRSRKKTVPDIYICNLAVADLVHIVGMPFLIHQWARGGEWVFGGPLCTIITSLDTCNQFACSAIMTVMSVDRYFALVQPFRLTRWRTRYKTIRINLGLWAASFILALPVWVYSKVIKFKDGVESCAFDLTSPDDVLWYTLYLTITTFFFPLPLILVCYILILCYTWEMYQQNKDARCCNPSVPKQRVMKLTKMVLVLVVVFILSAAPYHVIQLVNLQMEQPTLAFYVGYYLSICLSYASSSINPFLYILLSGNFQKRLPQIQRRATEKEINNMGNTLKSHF
# METHOD_SUMMARY: cell-based or functional assay
Positions of bridges follow the written chain, without caps; N, C: chain ends.
PROPERTY: EC50, aequorin bioluminescence (nM)
Give the value, in units of nM, as a plain number.

Ac-RCMLSRVYRPC-NH2 (disulfide 2-11 (inferred), also called Ser^10 peptide) [SEQ. ID. NO. 26 (Ser^10 analog of Ac-hMCH(6-16)-NH2)]
89
RCMLXRVYRPC (HELM PEPTIDE1{[ac].R.C.M.L.[Cit].R.V.Y.R.P.C.[am]}$PEPTIDE1,PEPTIDE1,3:R3-12:R3$$$V2.0; SMILES CSCC[C@@H]1NC(=O)[C@@H](NC(=O)[C@H](CCCNC(=N)N)NC(C)=O)CSSC[C@@H](C(N)=O)NC(=O)[C@@H]2CCCN2C(=O)[C@H](CCCNC(=N)N)NC(=O)[C@H](Cc2ccc(O)cc2)NC(=O)[C@H](C(C)C)NC(=O)[C@H](CCCNC(=N)N)NC(=O)[C@H](CCCNC(N)=O)NC(=O)[C@H](CC(C)C)NC1=O, also called Cit^10 peptide) [SEQ. ID. NO. 27 (Cit^10 analog of Ac-hMCH(6-16)-NH2)]
310

Proceeding to the next binder to report its EC50, aequorin bioluminescence.
Which EC50, aequorin bioluminescence is listed for Ac-RCMLRRVYRPC-NH2 (disulfide 2-11 (inferred)) [SEQ. ID. NO. 23 (Arg^10 analog of Ac-hMCH(6-16)-NH2)] ?
1660
